MEASURED PROPERTY: melting point

| MOLECULE | ENDPOINT RESULT |
| --- | --- |
| CC(C)NCc1cccc(Cn2ccc(OCc3ccc(F)cc3F)c(Br)c2=O)c1 | 109 to 110 °C |
| Cc1ccc(-c2cc3c(s2)CCCCC3=O)cc1 | 82 to 84 °C |
| O=C(c1c[nH]c2cc(Oc3ccc(F)cc3)ccc12)C1CSC(c2cccnc2)N1 (stereo unspecified) | 189 to 191 °C |
| COC(=O)[C@@H](C)OCC#Cc1cc(Cl)ccc1NS(=O)(=O)c1ccc2ncsc2c1 | 136 °C |
| COc1cc(N)c(C(N)=O)c(OC)c1 | 117 to 119 °C |
| O=Cc1c(O)c(O)cc([N+](=O)[O-])c1CCCC(=O)O | 164 to 168 °C |
| CCCCOC(=O)Nc1cccc(C(=O)C=CN(C)C)c1 | 115 to 116 °C |
| O=C(c1cccc(Cl)c1)c1cc(F)nc2ccccc12 | 93.2 °C |
| c1ccc(CSc2nc3sccn3n2)cc1 | 91 to 93 °C |
| Cc1cccc(Nc2cc(Cl)nc(SCC(=O)O)n2)c1C | 146 to 151 °C |
| Cc1oc(-c2ccc(S(C)(=O)=O)cc2)c(Oc2ccc(Cl)cc2)c(=O)c1Br | 251 °C |

----------
This listing pairs molecules with measured melting point.
MEASURED PROPERTY: melting point

| MOLECULE | ENDPOINT RESULT |
| --- | --- |
| CCCCc1nn(-c2cc([N+](=O)[O-])ccc2C(F)(F)F)c(=O)n1Cc1ccc(-c2ccccc2S(=O)(=O)NC(C)(C)C)cc1 | 135 to 137 °C |
| CC(OC(=S)Nc1ccc(-c2ncn(-c3ccc(OC(F)(F)F)cc3)n2)cc1)c1ccc(C(F)(F)F)nc1 (centres undefined) | 186 to 188 °C |
| CC(C)(CNC(=O)c1cc2cccc(NS(=O)(=O)c3cccs3)c2[nH]1)SCc1ccccc1 | 170 to 171 °C |
| Cc1cc(-c2cnn3c(C(F)(F)F)cc(-c4ccc(Cl)c(C)c4)nc23)ccn1 | 240 °C |
| CCOC(=O)c1cnc2n(c1=O)C(C)CC=C2NC (centres undefined) | 141 to 142 °C |
| Cn1nnnc1SCC1=NCCc2cc(OCc3ccccc3)c(OCc3ccccc3)cc21 | 146 to 148 °C |
| c1cc(Nc2ccc(-n3cccc3)cn2)cc(-n2ccnc2)c1 | 152 to 156 °C |
| O=C(O)c1cn(-c2ccc(F)cn2)c2nc(Cl)c(F)cc2c1=O | 234 to 238 °C |
| CC(C)(C(=O)O)n1c(=O)[nH]c2ccc(Cl)cc2c1=O | 256 to 259 °C |
| NC(=C[N+](=O)[O-])NC1=CC2CCC1C2 (centres undefined) | 128 to 132 °C |
| C#CCOc1cc(NN=C2CCCCN2C(=O)OC)c(Cl)cc1Cl | 137 to 138 °C |
| CCNc1nc(C(F)(F)F)nc(NCC)c1[N+](=O)[O-] | 60 to 65 °C |
| O=C(Nc1ccc(C(F)(F)F)cc1)Nc1ccc(S(=O)(=O)Nc2ccc(Cl)cc2)cc1 | 252 to 257 °C |
| CC(C)(C)OC(=O)NC(C)(C)c1ccc(-c2nc(Nc3cccc(CCO)c3)ncc2C#N)cc1 | 164 °C |
| Fc1ccc(Nc2ncnc3ccc(-c4ccsc4)cc23)cc1Cl | 195 to 197 °C |
| CC(=O)C(Cc1cc(O)c(O)c([N+](=O)[O-])c1)C(=O)C1CC1 (centres undefined) | 98 to 104 °C |
| CN(Cc1ccccc1)C(=O)Cn1c(=O)n(C)c2nc(-c3ccccc3)ncc21 | 160 to 161 °C |
| O=S1(=O)c2ccccc2-c2ccc(F)cc21 | 229 to 233 °C |
| CCNc1ncnc2nc(-c3ccncc3)[nH]c12 | 308 to 310 °C |

Recorded values, source a melting point compilation (Tetko et al.; mined from patent text by program, amines drawn as free bases though some values may be those of a salt).
